ASSAYED SYSTEM: hCB1 (Homo sapiens)
Sequence (P21554 whole entry): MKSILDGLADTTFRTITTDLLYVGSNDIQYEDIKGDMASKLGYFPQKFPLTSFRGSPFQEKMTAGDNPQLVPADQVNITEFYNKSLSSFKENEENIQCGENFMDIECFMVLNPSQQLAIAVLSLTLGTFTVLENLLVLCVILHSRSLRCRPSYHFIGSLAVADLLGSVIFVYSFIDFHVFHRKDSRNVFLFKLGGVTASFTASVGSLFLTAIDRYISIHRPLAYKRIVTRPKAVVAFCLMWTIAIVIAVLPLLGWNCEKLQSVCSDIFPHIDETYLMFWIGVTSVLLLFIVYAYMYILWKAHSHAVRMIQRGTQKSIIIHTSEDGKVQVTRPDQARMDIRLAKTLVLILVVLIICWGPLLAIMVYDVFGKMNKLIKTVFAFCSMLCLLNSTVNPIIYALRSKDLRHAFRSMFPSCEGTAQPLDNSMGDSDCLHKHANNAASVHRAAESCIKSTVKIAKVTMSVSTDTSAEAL
PROCEDURE TEXT: bioSensAll ebBRET signaling profiling, hCB1
Assay type: cell-based
Parameters: host or cells: HEK293SL cells, transient PEI transfection
MEASUREMENT PARAMETERS: Gi1 biosensor; Log [Compound] (M) -11.4949
The entries below are paired with their reported Gi1 hCB1 response.
OBSERVATION TYPE: Gi1 hCB1 response

1. Cc1cc(C(=O)NC(c2ccccc2)c2ccco2)nn1-c1cccc(C#N)c1 (centres unmarked) ... 8.247
2. Cc1cc(C(=O)NC(c2ccco2)c2ccco2)nn1-c1cccc(C(F)(F)F)c1 ... -1.668
3. Cc1cc(C(=O)N2CC3(CCC3)[C@@H]2[C@@H]2CCCO2)nn1-c1cccc(C(F)(F)F)c1 ... 4.331
4. Cc1cc(C(=O)N2CC3(CCC3)[C@@H]2[C@H]2CCCO2)nn1-c1cccc(C(F)(F)F)c1 (single isomer, unassigned) ... -5.853
5. Cc1cc(C(=O)N2CC3(CCC3)[C@H]2[C@H]2CCCO2)nn1-c1cccc(C(F)(F)F)c1 ... -1.466
6. Cc1cc(C(=O)N(C)C(c2ccco2)c2ccco2)nn1-c1cccc(C(F)(F)F)c1 ... 13.8426
7. Cc1cc(C(=O)NC(c2ccccc2)c2ccco2)nn1-c1cccc(C(F)(F)F)c1 (centres unmarked) ... 0.01089
8. CC(=O)C(c1cccs1)N(C)C(=O)c1cc(C)n(-c2cccc(C(F)(F)F)c2)n1 (centres unmarked) ... -2.585
9. COC(=O)C(NC(=O)c1cc(C)n(-c2cccc(F)c2)n1)c1cccs1 (centres unmarked) ... -5.54
10. COC(=O)C(NC(=O)c1cc(C)n(-c2cccc(C(F)(F)F)c2)n1)c1cccs1 (centres unmarked) ... -8.897
11. Cc1cc(C(=O)N2CC3(CCC3)[C@H]2[C@@H]2CCCO2)nn1-c1cccc(C(F)(F)F)c1 ... -2.608
12. COc1cccc(C(NC(=O)c2cc(C)n(-c3cccc(C(F)(F)F)c3)n2)c2ccco2)c1 (centres unmarked) ... 9.702
13. COC(=O)[C@@H]1[C@@H]2CC[C@@H]2CN1C(=O)c1cc(C)n(-c2cccc(C(F)(F)F)c2)n1 ... -6.8826
14. COC(=O)[C@](C)(NC(=O)c1cc(C)n(-c2cccc(C(F)(F)F)c2)n1)c1cccs1 ... -1.802
15. COC(=O)[C@@H]1[C@@H]2CCC[C@@H]2CN1C(=O)c1cc(C)n(-c2cccc(C(F)(F)F)c2)n1 ... -12.7913
16. Cc1cc(C(=O)N(C)C(c2ccccc2)c2ccco2)nn1-c1cccc(C(F)(F)F)c1 (centres unmarked) ... -0.9291
17. COC(=O)[C@@H]1[C@@H]2CCC[C@@H]2CN1C(=O)c1cc(C)n(-c2cccc(Cl)c2)n1 (racemic) ... -7.532

Source listed as paper PMC11882969.
